Assay: Agilent ZORBAX 300 SB-C18, 150 × 1 mm, 3.5 µm; A: water + 0.01% heptafluorobutyric acid; B: acetonitrile + 0.01% heptafluorobutyric acid; gradient (min/%B) 0/0 100/90
Conditions: stereoisomer not certain
READOUT: LC retention time (min)
Answer with a number only, understood to be in min.

Please review the entries below; each comes with its answer.
COMPOUND: OCCNC1CCCCC1
LC retention time, min: 7.24
//
COMPOUND: Cc1cccc2c(=O)cc(-c3ccccc3)oc12
LC retention time, min: 15.4
//
COMPOUND: CC(C)OC(C)n1cccc1-c1ccccc1 (centres undefined)
LC retention time, min: 17.7
//
COMPOUND: OCc1ccccc1CNC1CCCCC1
LC retention time, min: 8.87
//
COMPOUND: O=C(Nc1ccc(Nc2ccccc2)cc1)C(c1ccccc1)c1ccccc1
LC retention time, min: 17.1
//
COMPOUND: COC(C)C(N)=O (centres undefined)
LC retention time, min: 2.9
//
COMPOUND: c1cncc(Cn2cccc2)c1
LC retention time, min: 8.31
//
COMPOUND: Cc1cccnc1C
LC retention time, min: 6.67

Q: LC retention time for "CCCc1cc(C(=O)O)ccn1" ?
A: 6.01

Q: LC retention time for "Cn1ccc2cc(C=O)ccc21" ?
A: 11.3

Q: LC retention time for "Cc1n[nH]c(=O)nc1NC1CCCCC1" ?
A: 8.28

Q: LC retention time for "CCCCSCCSC(=N)N" ?
A: 9.27

Q: LC retention time for "NC(=O)c1cc2ccccc2o1" ?
A: 9.05

Q: LC retention time for "CN(C)c1nc(N(C)C)nc(N2CCCCC2)n1" ?
A: 11.2
